Where do these numbers come from? They come from patent US20230365679A1.

# studySystem: T1, CD22 on the cell membrane of CD22-positive cell lines (Raji, REH, CA46) (UniProt P20273 20-847, limits assumed)
# T1 construct: whole, on cells; Raji and CA46: relatively high expression of CD22; REH: relatively medium expression; also called CD22 on cell membrane
# experimentalProtocol: FACS on CA46 cells
Item-by-item account of EC50
parameter: EC50 (µg/mL)

1. mAb-2 (antibody, human IgG1, kappa, V domains shown, Humanized IgG1/kappa antibody; also called V2 HC + V2 LC) VH: EVQLVESGGGLVKPGGSLRLSCAASGFAFSIYDMSWVRQTPEKCLEWVAYISSGGGTTYYPDSVKGRFTISRENAKNSLYLQMNSLKSEDTAMYYCARHSGYGTHWGVLFAYWGQGTMVTVSS VL: DIQMTQSTSTLSASVGDRVTITCRASQDISNYLNWYQQRPDGSVKLLIYYTSILHSGVPSRFSGSGSGTDYTLTISSLQDEDFATYFCQQGNTLPWTFGCGTKVEIKR    0.23
2. HA22 mAb (antibody, human IgG1, kappa, V domains shown, also called positive antibody HA22 mAb) VH: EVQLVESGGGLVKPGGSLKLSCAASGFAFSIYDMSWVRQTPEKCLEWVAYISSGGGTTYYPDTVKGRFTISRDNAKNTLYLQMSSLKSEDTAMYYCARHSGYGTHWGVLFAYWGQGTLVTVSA VL: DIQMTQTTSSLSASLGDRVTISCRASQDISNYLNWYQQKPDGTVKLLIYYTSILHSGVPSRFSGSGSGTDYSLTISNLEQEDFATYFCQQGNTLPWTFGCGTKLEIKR    0.221
3. mAb-6 (antibody, human IgG1, kappa, V domains shown, Humanized IgG1/kappa antibody; also called V4 HC + V4 LC) VH: EVQLVESGGGLVKPGGSLRLSCAASGFAFSIYDMSWIRQAPGKCLEWVAYISSGGGTTYYPGSVKGRFTISRENAKNSLYLQMNSLRAGDTAVYYCARHSGYGTHWGVLFAYWGQGTMVTVSS VL: DIQMTQSPSTLSASVGDRVTITCRASQDISNYLNWFQQRPGQSPRLLIYYTSILHSGVPSRFSGSGSGTDYTLTISSLQPEDFATYYCQQGNTLPWTFGCGTKVEIKR    2.75
